Target: T1, P66 (rabbit ANGPTL7-his) (rabbit, UniProt G1T4P1 27-344)
T1 construct: mature; also called rabbit ANGPTL7 protein
T1 sequence: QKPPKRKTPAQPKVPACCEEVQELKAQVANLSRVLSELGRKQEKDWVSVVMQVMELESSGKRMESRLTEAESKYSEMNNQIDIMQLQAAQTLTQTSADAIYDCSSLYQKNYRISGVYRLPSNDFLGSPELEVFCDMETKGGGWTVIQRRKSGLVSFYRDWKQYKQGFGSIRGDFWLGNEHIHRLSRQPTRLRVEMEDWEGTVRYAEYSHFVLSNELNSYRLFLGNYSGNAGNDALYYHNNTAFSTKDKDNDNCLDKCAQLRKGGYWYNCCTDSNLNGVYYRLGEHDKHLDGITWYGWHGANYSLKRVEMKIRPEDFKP
Assay: BLI Octet HTX; IgG on AHC sensor; P66 at 200 nM; 1:1 fit
Protocol: Experiments were also conducted to determine the reactivity and dissociation constants ([…]) of anti-ANGPTL7 antibodies with the rabbit ANGPTL7 protein. Binding experiments were performed on Octet HTX (ForteBio) in Rx PBS, pH 7.4, 0.1 mg/mi BSA, 0.05% Sodium Azide, and 0.02% Tween 20. Antibodies at a concentration of 50 nM were loaded on pre-hydrated AHC biosensors for 5 min. […] Responses (nm) at the end of association were also determined (Table 6).
Consider the following binders and their measured Kd readings.
reported.metric: Kd (nM)

[[record]]
binder = "ATX-P-448 (antibody, human IgG1, kappa, N297A, V domains shown, Full chains (VH + hIgG1-Agly-Fc)) VH: QVQLVESGGGVVQPGRSLRLSCAASGFPFSSYGMHWVRQAPGKGLEWVAVMSYDGINGYYADSVKGRFTISRDNSKNTLYLQMNSLRAEDTAVYYCARLVYADDAFDIWGQGTTVTVSS VL: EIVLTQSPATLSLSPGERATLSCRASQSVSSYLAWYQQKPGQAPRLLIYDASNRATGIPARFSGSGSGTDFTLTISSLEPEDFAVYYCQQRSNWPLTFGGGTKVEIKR"
numeric_readout = 0.949

[[record]]
binder = "ATX-P-427 (antibody, human IgG1, kappa, N297A, V domains shown, Full chains (VH + hIgG1-Agly-Fc)) VH: EVQLVESGGGVVRPGGSLRLSCAASGFSFDDYGMSWVRQVPGKGLEWVSGINWNGGSTGYADSVKGRFTISRDNAKNSLYLQMSSLRAEDTALYYCASYSGSFRDAFDIWGQGTMVTVSS VL: AIQMTQSPSSLSASVGDRVTITCRASQGIRNDLGWYQQKPGKAPKLLIYAASSLQSGVPSRFSGSGSGTDFTLTISSLQPEDFATYYCLQDYNYPYTFGQGTKLEIKR"
numeric_readout = 3.21

[[record]]
binder = "ATX-P-423 (antibody, human IgG1, kappa, N297A, V domains shown, Full chains (VH + hIgG1-Agly-Fc)) VH: QVQLVESGGGVVQPGRSLRLSCAASGFTFSSYGMHWVRQAPGKGLEWVSHITYDGSDKYYGDSVKGRFTISRDNSKNTLYLQMNSLRAEDTAVYYCAKDGYSSGWWYFDYWGQGTLVTVSS VL: DIQMTQSPSSLSASVGDRVTITCRASQGIRNDLGWYQQKPGKAPKRLIYAASSLQSGVPSRFSGSGSGTEFALTISSLQPEDFATYYCLQHNSYPLTFGGGTKLEIKR"
numeric_readout = 6.69

[[record]]
binder = "ATX-P-440 (antibody, human IgG1, kappa, N297A, V domains shown, Full chains (VH + hIgG1-Agly-Fc)) VH: EVQLVESGGGVVRPGGSLRLSCAASGFTFDDYGMSWVRQAPGKGLEWVSTINWNGGNTGYADSVKGRFTISRDNAKNSLYLQMNSLRAEDTALYYCARDEGAAGLGYYFDYWGQGTLVTVSS VL: DIQMTQSPSTLSASVGDRVTITCRASQSISSWLAWYQQKPGKAPKLLIYATSSLQSGVPSRFSGSGSGTDFTLTISSLQPEDFATYYCQQSYSTPITFGQGTRLEIKR"
numeric_readout = 6.27

